Assay: Equilibrium thermodynamic aqueous solubility of the compound in pH 5.9 buffer incubated for 24 hrs by UV-spectroscopy based shake flask method
Format: physicochemical
Conditions: read-out: Therm_solubility
measure name: solubility thermodynamic at 24 h

[[record]]
chemical_smiles = "CP(=O)(O)c1ccc(C(F)(F)F)cc1"
measure_name = "solubility thermodynamic at 24 h"
result = "> 8900 µg/mL"


====

Assay: in vitro
Details: human, liver microsomes
Description: Half life in human liver microsomes at 1 uM incubated prior to NADPH addition by LC-MS/MS analysis
measure name: half-life at 1 µM

[[record]]
molecule = "CCOP(C)(=O)c1ccc(C(=O)Nc2ccc(C)c(Nc3nccc(-c4cccnc4)n3)c2)cc1 (stereo unspecified)"
result = "0.8 h"

[[record]]
molecule = "CCOP(=O)(OCC)c1ccc(C(F)(F)F)cc1"
result = "> 2.17 h"

[[record]]
molecule = "CCP(=O)(CC)c1ccc(C(F)(F)F)cc1"
result = "> 2.17 h"

[[record]]
molecule = "CCOP(=O)(OCC)c1ccc(C(=O)Nc2ccc(C)c(Nc3nccc(-c4cccnc4)n3)c2)cc1"
result = "0.283 h"

[[record]]
molecule = "CC(C)OP(=O)(OC(C)C)c1ccc(C(F)(F)F)cc1"
result = "> 2.17 h"

[[record]]
molecule = "CP(C)(=O)c1ccc(C(F)(F)F)cc1"
result = "> 2.17 h"

[[record]]
molecule = "O=P1(c2ccc(C(F)(F)F)cc2)CCCC1"
result = "> 2.17 h"

[[record]]
molecule = "Cc1ccc(NC(=O)c2ccc(C(N)=O)cc2)cc1Nc1nccc(-c2cccnc2)n1"
result = "1.95 h"

[[record]]
molecule = "CCOP(=O)(O)c1ccc(C(=O)Nc2ccc(C)c(Nc3nccc(-c4cccnc4)n3)c2)cc1"
result = "> 2.17 h"

[[record]]
molecule = "CC1(C)COP(=O)(c2ccc(C(F)(F)F)cc2)OC1"
result = "> 2.17 h"

[[record]]
molecule = "O=P1(c2ccc(C(F)(F)F)cc2)NCCCN1"
result = "> 2.17 h"

[[record]]
molecule = "Cc1ccc(NC(=O)c2ccc(C(=O)N(C)C)cc2)cc1Nc1nccc(-c2cccnc2)n1"
result = "1.12 h"

[[record]]
molecule = "CCP(=O)(CC)c1ccncc1"
result = "> 2.17 h"

[[record]]
molecule = "CN1CCCOP1(=O)c1ccc(C(F)(F)F)cc1 (stereo unspecified)"
result = "> 2.17 h"

[[record]]
molecule = "O=C(O)c1ccc(C(F)(F)F)cc1"
result = "> 2.17 h"

[[record]]
molecule = "CCOP(=O)(O)c1ccc(C(F)(F)F)cc1"
result = "> 2.17 h"

[[record]]
molecule = "Cc1ccc(NC(=O)c2ccc(P(C)(=O)O)cc2)cc1Nc1nccc(-c2cccnc2)n1"
result = "> 2.17 h"

[[record]]
molecule = "O=P1(c2ccc(C(F)(F)F)cc2)CCOCC1"
result = "> 2.17 h"

[[record]]
molecule = "CP(=O)(O)c1ccc(C(F)(F)F)cc1"
result = "> 2.17 h"

[[record]]
molecule = "CN1CCP(=O)(c2ccc(C(F)(F)F)cc2)CC1"
result = "> 2.17 h"

[[record]]
molecule = "O=P1(c2ccc(C(F)(F)F)cc2)CCC1"
result = "> 2.17 h"

[[record]]
molecule = "Cc1ccc(NC(=O)c2ccc(P(C)(C)=O)cc2)cc1Nc1nccc(-c2cccnc2)n1"
result = "> 2.17 h"

[[record]]
molecule = "O=P1(c2ccc(C(F)(F)F)cc2)OCCNCCO1"
result = "> 2.17 h"

[[record]]
molecule = "Cc1ccc(NC(=O)c2ccc(P(=O)(O)O)cc2)cc1Nc1nccc(-c2cccnc2)n1"
result = "> 2.17 h"

[[record]]
molecule = "COP(=O)(O)c1ccc(C(F)(F)F)cc1"
result = "> 2.17 h"

[[record]]
molecule = "O=P1(c2ccc(C(F)(F)F)cc2)CCNCC1"
result = "> 2.17 h"

